Biological target: T1, hVEGF-C (human, UniProt P49767)
T1 construct: unlabelled; also called human VEGF-C
T1 sequence (VEGF-C, looked up): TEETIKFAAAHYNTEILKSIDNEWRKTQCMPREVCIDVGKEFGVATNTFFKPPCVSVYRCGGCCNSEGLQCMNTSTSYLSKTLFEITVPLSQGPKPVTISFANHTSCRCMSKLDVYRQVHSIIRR
Assay: phage competition ELISA: phage-displayed clone incubated with increasing soluble hVEGF-C, unbound phage captured on hVEGF-C coated plate, anti-M13-HRP, OD450
observation.type: IC50 (nM)

INSERT INTO results (binder, observation_type, value) VALUES
  ('VC4.4 (antibody, V domains shown, also called clone VC4.4) VH: EVQLVESGGGLVQPGGSLRLSCAASGFTFTDNWIHWVRQAPGKGLEWVGVISPYSGATYYADSVKGRFTISADTSKNTAYLQMNSLRAEDTAVYYCARDVDYYYAWWALDYWGQGTLVTVSS VL: DIQMTQSPSSLSASVGDRVTITCRASQDVSTAVAWYQQKPGKAPKLLIYSASFLYSGVPSRFSGSGSGTDFTLTISSLQPEDFATYYCQQSYTTPPTFGQGTKVEIK', 'IC50', 2.17);

Sourced from patent US20110143428A1
